System: Peroxisome proliferator-activated receptor gamma/Nuclear receptor coactivator 3 (Homo sapiens, UniProt P37231);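 also: agonist potency for raising coactivator recruitment to the receptor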
Sequence (P37231 whole entry): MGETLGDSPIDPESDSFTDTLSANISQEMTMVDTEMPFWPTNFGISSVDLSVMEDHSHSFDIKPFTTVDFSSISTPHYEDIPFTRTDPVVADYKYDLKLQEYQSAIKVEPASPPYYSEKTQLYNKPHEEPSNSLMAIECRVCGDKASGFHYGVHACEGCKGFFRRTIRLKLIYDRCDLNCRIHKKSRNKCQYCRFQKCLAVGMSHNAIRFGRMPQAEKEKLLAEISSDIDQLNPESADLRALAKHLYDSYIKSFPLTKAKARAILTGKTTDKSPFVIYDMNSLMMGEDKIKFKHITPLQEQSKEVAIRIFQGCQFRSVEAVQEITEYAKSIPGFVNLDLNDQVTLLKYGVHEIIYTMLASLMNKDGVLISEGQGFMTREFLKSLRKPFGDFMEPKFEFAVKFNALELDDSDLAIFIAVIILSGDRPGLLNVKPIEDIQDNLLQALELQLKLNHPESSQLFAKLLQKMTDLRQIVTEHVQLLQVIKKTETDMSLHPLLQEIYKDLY
Sequence (Q9Y6Q9 whole entry, further chain): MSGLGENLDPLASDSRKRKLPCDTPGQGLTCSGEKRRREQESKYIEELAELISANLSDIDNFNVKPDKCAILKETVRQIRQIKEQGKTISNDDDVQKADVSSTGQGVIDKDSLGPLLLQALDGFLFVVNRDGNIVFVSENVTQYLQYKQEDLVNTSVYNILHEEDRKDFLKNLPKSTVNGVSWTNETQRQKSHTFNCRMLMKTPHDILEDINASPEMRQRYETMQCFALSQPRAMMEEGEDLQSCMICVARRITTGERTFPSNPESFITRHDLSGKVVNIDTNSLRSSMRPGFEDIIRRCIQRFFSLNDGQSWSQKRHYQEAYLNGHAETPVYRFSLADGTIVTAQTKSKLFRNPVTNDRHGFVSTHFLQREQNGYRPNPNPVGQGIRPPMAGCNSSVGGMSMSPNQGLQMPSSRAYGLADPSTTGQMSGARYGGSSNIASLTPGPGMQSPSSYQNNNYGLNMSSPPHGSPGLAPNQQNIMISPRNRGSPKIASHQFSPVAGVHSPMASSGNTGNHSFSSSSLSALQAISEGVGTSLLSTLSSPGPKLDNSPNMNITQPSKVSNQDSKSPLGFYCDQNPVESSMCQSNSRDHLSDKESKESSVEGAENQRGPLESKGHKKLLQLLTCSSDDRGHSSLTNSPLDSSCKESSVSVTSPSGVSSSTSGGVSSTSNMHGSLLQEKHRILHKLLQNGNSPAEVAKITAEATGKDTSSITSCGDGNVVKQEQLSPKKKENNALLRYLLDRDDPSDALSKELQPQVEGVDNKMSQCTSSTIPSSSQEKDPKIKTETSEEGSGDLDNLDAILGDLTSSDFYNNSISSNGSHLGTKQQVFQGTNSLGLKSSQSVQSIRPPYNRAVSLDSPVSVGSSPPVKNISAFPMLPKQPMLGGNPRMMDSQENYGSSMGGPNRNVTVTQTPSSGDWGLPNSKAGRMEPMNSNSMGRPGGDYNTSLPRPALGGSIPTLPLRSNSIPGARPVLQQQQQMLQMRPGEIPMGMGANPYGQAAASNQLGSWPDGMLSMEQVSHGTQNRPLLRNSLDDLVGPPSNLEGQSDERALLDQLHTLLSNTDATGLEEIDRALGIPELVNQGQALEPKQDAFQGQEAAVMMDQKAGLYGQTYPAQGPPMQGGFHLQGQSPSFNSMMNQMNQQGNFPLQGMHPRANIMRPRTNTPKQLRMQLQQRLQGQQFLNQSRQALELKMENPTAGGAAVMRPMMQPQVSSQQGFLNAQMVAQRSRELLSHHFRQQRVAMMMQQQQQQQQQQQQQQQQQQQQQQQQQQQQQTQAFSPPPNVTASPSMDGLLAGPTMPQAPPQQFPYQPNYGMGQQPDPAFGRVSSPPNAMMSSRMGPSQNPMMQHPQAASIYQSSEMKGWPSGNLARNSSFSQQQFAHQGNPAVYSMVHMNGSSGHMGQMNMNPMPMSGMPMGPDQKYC
Type: functional
Activity calls are given as the source filed them.
Measured attribute: EC50

Examples with answers:
| Smiles str | EC50 |
| --- | --- |
| COc1cc(OC)cc(-n2nnnc2SCC(=O)Nc2ccc(C(C)=O)cc2)c1 | 8.1 µM (active) |
| c1ccc(-n2ncc3c2ncn2nc(-c4ccco4)nc32)cc1 | > 79.4 µM (not active) |
| O=C(Nc1ccc(N2CCCCC2)cc1)c1ccccc1 | > 79.4 µM (not active) |

Input line: Name the reported EC50 value associated with the compound COc1ccc2sc3c(O)nc4ccccc4c3c2c1
Output line: 11.2 µM (not active)

Input line: Name the reported EC50 value associated with the compound O=C(NCc1ccc2c(c1)OCO2)Nc1ccc2nsnc2c1
Output line: 29.8 µM (not active)

Input line: Name the reported EC50 value associated with the compound COc1ccc(Nc2nc(S(=O)(=O)c3ccc(C)cc3)c(Cl)s2)cc1
Output line: > 79.4 µM (not active)

====

Test system: SN12K1
Method: cells
Format: functional
Assay context: Homo sapiens
Where a name gives a salt, the structure may show the parent alone. Calls of active or inactive are those of the source.
// reported GI50 per item

Examples with answers:
| Compound | GI50 |
| --- | --- |
| CN(C)CC1CC/C(=C\c2ccc(Cl)cc2)C1=O (centres undefined) | 2.21 µM (inactive) |
| CNNCc1ccc(C(=O)NC(C)C)cc1 [PROCARBAZINE HYDROCHLORIDE] | > 456 µM (inactive) |
| Cc1ccc(S(=O)(=O)Oc2cc(-c3ccccc3)nc3ccccc23)cc1 | 1.61 µM (inactive) |

Consider the record given below.
Input line: Name the reported GI50 value associated with the compound Nc1ncn([C@H]2C[C@H](O)[C@@H](CO)O2)c(=O)n1
Output line: > 375 µM (inactive)

====

System: UniProtKB P55789
Sequence (P55789 whole entry): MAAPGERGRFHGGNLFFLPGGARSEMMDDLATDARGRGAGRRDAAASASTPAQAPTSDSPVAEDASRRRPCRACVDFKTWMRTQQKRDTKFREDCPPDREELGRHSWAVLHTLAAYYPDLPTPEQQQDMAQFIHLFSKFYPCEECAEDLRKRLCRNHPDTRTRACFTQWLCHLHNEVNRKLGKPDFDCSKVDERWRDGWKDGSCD
Method: inhibitors of human ALR sulfhydryl oxidase, dose response, biochemical, H2O2 detection, luminescence, cherry-pick (AID 493248)
Active and inactive are the calls of the source.
Please reply with one of these outcomes: y (active), n (inactive)

| Compound | System | Assigned label |
| --- | --- | --- |
| CC1(C)CN(c2ccccc2)N(C(=O)c2ccc(C#N)cc2)C1=O | UniProtKB P55789 | y |
| N#CC1=C(N)Oc2cc(N)ccc2C1C1CC=CCC1 (stereo not drawn) | UniProtKB P55789 | y |
| CCN(CC)c1ccc(NC(=O)c2ccc(Br)o2)c(C)c1 | UniProtKB P55789 | y |
| Oc1ccc(-c2nnc(S)n2-c2ccc(F)c(Cl)c2)nn1 | UniProtKB P55789 | y |
| CN(CC(=O)N1CCN(c2ccccc2)CC1)S(=O)(=O)c1c[nH]cn1 | UniProtKB P55789 | y |
| Nc1nc(-c2ccc3ccccc3c2)cs1 | UniProtKB P55789 | y |
| O=C(NNS(=O)(=O)c1ccc(C(=O)NC2CCCC2)cc1)c1ccncc1 | UniProtKB P55789 | y |

Continue with the next compound.
Input line: Tell me the recorded outcome of this test for O=C(CCc1ccccc1F)N1CCN(c2ccccc2)CC1 .
Output line: n

====

System: Intestinal-type alkaline phosphatase (Homo sapiens, UniProt P09923)
Sequence (P09923 whole entry): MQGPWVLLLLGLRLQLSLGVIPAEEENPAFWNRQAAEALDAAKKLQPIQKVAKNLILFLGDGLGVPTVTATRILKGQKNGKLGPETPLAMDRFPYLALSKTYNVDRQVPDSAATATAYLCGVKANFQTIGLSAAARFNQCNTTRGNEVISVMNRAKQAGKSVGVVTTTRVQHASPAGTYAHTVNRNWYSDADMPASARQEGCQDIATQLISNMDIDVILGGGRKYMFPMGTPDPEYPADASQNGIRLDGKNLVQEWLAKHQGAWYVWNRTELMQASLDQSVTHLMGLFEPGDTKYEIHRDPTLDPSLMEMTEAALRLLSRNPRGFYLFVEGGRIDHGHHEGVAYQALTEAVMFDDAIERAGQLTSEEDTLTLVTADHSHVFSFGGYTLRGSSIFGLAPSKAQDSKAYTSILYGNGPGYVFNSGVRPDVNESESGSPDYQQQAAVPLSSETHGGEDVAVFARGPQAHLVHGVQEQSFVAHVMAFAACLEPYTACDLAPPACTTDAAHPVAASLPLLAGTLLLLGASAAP
Method: human intestinal alkaline phosphatase activators, dose response, biochemical, luminescence, uHTS hits (AID 463120)
Assay type: functional
The source made the active and inactive calls.
Please reply with one of these outcomes: 1 (active), 0 (inactive)

| Compound | Assigned label |
| --- | --- |
| Cc1ccc(-n2ncc3c(NNC(=O)c4ccco4)ncnc32)cc1C | 1 |
| CCOC(=O)c1c(C)[nH]c(C(=O)N/N=C/c2cc([N+](=O)[O-])ccc2O)c1C | 1 |
| CC1C(=O)NN=C1C(=O)N/N=C\c1ccc(O)cc1O (centres undefined) | 1 |

Continue with the next compound.
Input line: Tell me the recorded outcome of this test for COc1ccc(CC2CC(=O)N(c3ccc(C)cc3)C2=O)cc1 (centres undefined) .
Output line: 0

====

System: Corticotropin-releasing factor receptor 2/Corticotropin-releasing factor-binding protein (Homo sapiens, UniProt P24387+Q13324)
Sequence (Q13324 whole entry): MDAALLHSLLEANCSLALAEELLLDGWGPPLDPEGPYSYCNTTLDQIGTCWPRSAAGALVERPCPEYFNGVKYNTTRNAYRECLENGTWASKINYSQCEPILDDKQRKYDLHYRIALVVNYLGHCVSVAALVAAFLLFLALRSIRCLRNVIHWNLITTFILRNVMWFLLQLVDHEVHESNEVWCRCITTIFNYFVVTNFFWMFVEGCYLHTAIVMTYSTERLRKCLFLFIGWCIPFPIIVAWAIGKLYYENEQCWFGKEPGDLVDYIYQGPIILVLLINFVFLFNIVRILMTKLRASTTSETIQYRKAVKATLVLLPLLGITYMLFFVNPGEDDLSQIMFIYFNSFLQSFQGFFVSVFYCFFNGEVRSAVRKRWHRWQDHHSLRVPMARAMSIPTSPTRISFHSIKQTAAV
Sequence (P24387 whole entry): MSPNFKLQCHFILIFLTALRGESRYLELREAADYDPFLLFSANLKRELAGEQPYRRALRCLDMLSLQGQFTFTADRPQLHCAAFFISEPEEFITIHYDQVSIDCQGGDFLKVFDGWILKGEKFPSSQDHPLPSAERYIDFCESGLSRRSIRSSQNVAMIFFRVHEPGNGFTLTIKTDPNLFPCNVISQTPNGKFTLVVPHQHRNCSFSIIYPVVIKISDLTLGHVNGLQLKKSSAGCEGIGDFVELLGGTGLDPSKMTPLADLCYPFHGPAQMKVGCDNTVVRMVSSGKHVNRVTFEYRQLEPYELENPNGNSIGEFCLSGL
Method: Dose Response confirmation of uHTS hits for small molecule antagonists of the CRF-binding protein and CRF-R2 receptor complex.
Format: functional
Assay context: read-out: IC50_Mean
Calls of active or inactive are those of the source.
Please reply with one of these outcomes: t for active, f for inactive

Answered cases to consult:
| Compound | Assigned label |
| --- | --- |
| Cc1ccccc1C(=O)NCC(=O)OC1CCCCC1=O (stereo not given) | f |
| Cc1ccc(S(=O)(=O)N2CCCCCC2)cc1[N+](=O)[O-] | t |
| O=C1CSC(c2ccccc2F)N1c1cc(Cl)ccc1O (stereo not given) | f |
| Cc1ccc(CNC(=O)CCC(=O)c2cccs2)cc1 | f |
| COc1ccc(Nc2nc(Cl)nc(NCc3ccco3)n2)c(OC)c1 | f |
| O=C1c2ccccc2-c2ncnc3c(N4CCOCC4)cc(N4CCOCC4)c1c23 | f |

Continue with the next compound.
Input line: Tell me the recorded outcome of this test for CCN(c1ccccc1)S(=O)(=O)c1cc(NC(=O)CSc2nnc(O)nc2O)ccc1Cl .
Output line: f

====

System: Zinc finger protein mex-5 (Caenorhabditis elegans)
Sequence (Q9XUB2 whole entry): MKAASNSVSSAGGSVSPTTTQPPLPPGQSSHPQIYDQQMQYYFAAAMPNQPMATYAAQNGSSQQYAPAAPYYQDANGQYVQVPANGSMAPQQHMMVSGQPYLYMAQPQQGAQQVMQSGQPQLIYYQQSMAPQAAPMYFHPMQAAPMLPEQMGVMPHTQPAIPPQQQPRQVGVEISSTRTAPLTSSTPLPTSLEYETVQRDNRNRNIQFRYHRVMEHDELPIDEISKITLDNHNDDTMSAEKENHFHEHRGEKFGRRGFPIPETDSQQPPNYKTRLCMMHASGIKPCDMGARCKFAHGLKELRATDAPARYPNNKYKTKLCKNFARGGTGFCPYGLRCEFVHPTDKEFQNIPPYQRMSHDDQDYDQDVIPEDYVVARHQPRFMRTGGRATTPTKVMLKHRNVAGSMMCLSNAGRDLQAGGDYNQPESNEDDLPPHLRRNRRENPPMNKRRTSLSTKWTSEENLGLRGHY
Method: MEX-5/TCR-2 RNA interaction inhibitors, dose response, biochemical, C. elegans, fluorescence polarization (AID 1960)
Calls of active or inactive are those of the source.
Measured attribute: EC50

| Compound | EC50 |
| --- | --- |
| C=CCN1C(=O)/C(=C2/Sc3ccc(OC)cc3N2CC)SC1=S | > 300 µM (not active) |
| Nc1n[nH]c(Sc2ccc([N+](=O)[O-])cc2[N+](=O)[O-])n1 | 30.1 µM (active) |
| Cc1ccc(-n2ncc3c(NNC(=O)c4ccco4)ncnc32)cc1C | 142 µM (active) |

Input line: Name the reported EC50 value associated with the compound COc1ccc(OC)c(/C=c2\sc3nc(-c4cccs4)nn3c2=O)c1
Output line: > 300 µM (inconclusive)

Input line: Name the reported EC50 value associated with the compound CCO/C(C)=N/n1c2nc3ccccc3nc2c2c(=O)n(C3CCCC3)c(C)nc21
Output line: > 300 µM (not active)

Input line: Name the reported EC50 value associated with the compound O=C1NC(=O)N(c2ccccc2)C(=O)/C1=C/c1coc2ccc(O)cc2c1=O
Output line: > 300 µM (not active)

Input line: Name the reported EC50 value associated with the compound COC(=O)Cn1cc(C=C2C(=O)N(C)C(=O)N(C)C2=O)c2ccccc21
Output line: 2.85 µM (inconclusive)

Input line: Name the reported EC50 value associated with the compound Cc1n[nH]c(N=Nc2ccc(O)cc2)n1
Output line: 4.83 µM (active)

Input line: Name the reported EC50 value associated with the compound Cc1nc(N2CCN(Cc3ccccc3)CC2)c(C#N)c2c1COC(C)(C)C2
Output line: 108 µM (active)
